These data points were gathered from PubChem BioAssay (NCI).

# Tested on: MDA-MB-435 melanoma
# PROTOCOL: NCI-60 one-dose screen, 48 h
# CONDITION: 10 µM unless noted
# Method: Growth inhibition of the MDA-MB-435 human Melanoma tumor cell line is measured as a screen for anti-cancer activity. Cells are grown in 96 well plates and exposed to the test compound for 48 hours. Compounds are tested at a single concentration, which is 10^-5 M for most compounds. The reported endpoint is percent growth (GI% or GIPRCNT), where numbers from 0 - 100% represent growth inhibition, and numbers from -100% - 0 represent cell death. […]
This is part of a sample that, as a whole, favours compounds with a hit. Of some 83,000 tested, about 20% had one in any assay. Activity calls are given as the source filed them. The calls were made as follows: active = growth percent below 10; inactive = the rest.
Output constraint: value belongs to T = active, F = inactive

Take a look at these entries with their results.
O=C(Cc1ccc(/C=C/C(=O)c2ncc[nH]2)cc1)Nc1ccc(F)cc1 = F
NC(=NC1C2CC3CC(C2)CC1C3)Nc1ccc(I)cc1 (stereo not given) = F

How was "Brc1ccc(-c2csc(Nc3ccccn3)n2)cc1" classified in this test?
F

How was "Cc1nn(-c2cc(=O)[nH]c3ccc(Cl)cc23)c(N)c1C#N" classified in this test?
F

How was "CC[C@H]1OC(=O)[C@H](C)[C@@H](O[C@H]2C[C@@](C)(OC)[C@@H](O)[C@H](C)O2)[C@H](C)[C@@H](O[C@@H]2O[C@H](C)C[C@H](N(C)C)[C@H]2O)[C@](C)(O)C[C@H](C)CN(C)[C@H](C)[C@@H](O)[C@]1(C)O" classified in this test?
F

How was "O=C(/C=C/C=C/c1ccc2c(c1)OCO2)N/N=C\c1ccc(O)cc1O" classified in this test?
F

How was "NNCCc1ccc(NC(=O)CCCc2ccc(/C=C/C(=O)NO)cc2)cc1" classified in this test?
F

###

# Tested on: PC-3 prostate
# PROTOCOL: NCI-60 one-dose screen, 48 h (100 = growth as untreated, 0 = no growth, -100 = all killed)
# CONDITION: 10 µM unless noted
The panel holds about 83,000 compounds, 20% with a hit somewhere; the sample as a whole holds those more often.
ENDPOINT_NAME: growth (%)
Answer with a number only, understood to be in %.

COc1cc(C=Nc2oc(-c3ccccc3)c(-c3ccccc3)c2C#N)cc(CN2CCCCC2)c1O = 93.2

Request the reported growth associated with "CC[C@@H]1O[C@H](O[C@@H](c2cnc[nH]2)[C@H](NC(=O)c2nc([C@H](CC(N)=O)NC[C@@H](N)C(N)=O)nc(N)c2C)C(=O)N[C@H](C)[C@H](O)[C@H](C)C(=O)N[C@@H](C(=O)NCCc2nc(-c3nc(C(=O)NCCCCN=C(N)N)cs3)cs2)[C@@H](C)O)[C@H](O[C@@H]2O[C@H](CO)[C@H](O)[C@H](OC(N)=O)[C@@H]2O)[C@H](C)[C@@H]1C"
71.2

Request the reported growth associated with "CC/C=C\C/C=C\C[C@H]1C/C=C2/C(=O)C=C[C@@H]2C/C=C\CCC(=O)O1"
2.76

###

# Test system: UACC-62 melanoma
# PROTOCOL: NCI-60 one-dose screen, 48 h (100 = growth as untreated, 0 = no growth, -100 = all killed)
# CONDITION: 10 µM unless noted
# Protocol: Growth inhibition of the UACC-62 human tumor cell line is measured as a screen for anti-cancer activity. Cells are grown in 96 well plates and exposed to the test compound for 48 hours. Compounds are tested at a single concentration, which is 10^-5 M for most compounds. The reported endpoint is percent growth (GI% or GIPRCNT), where numbers from 0 - 100% represent growth inhibition, and numbers from -100% - 0 represent cell death. For example, a value of 40 represents 60% growth inhibition. […]
The panel holds about 83,000 compounds, 20% with a hit somewhere; the sample as a whole holds those more often.
Values of growth greater than or equal to 60% map to Yes; values below map to No.

Take a look at these entries with their results.
CCCCN1CCCn2c1nc1c2c(=O)n(CCC)c(=O)n1CCC = Yes
Cc1nc(/N=C(\N)NC(=O)Nc2cccc([N+](=O)[O-])c2)sc1C = Yes
CC(O)CN(CC(C)O)c1ccc2c(c1)Cc1cc([N+](=O)[O-])ccc1-2 (centres undefined) = Yes
COc1ccc(SC2c3ccc(C)cc3Oc3nc(N)c(C#N)c(N)c32)cc1 (centres undefined) = No
COc1ccc(/C=C\c2cc(OC)c(OC)c(OC)c2)cc1OCC(=O)Nc1ccc2nc(C)sc2c1 = No
C=CC(=O)Nc1cccc(-c2nc(SC)nc(NCCN3CCOCC3)c2C#N)c1 = Yes
O=C1/C(=C/N2N=C(c3ccc4ccccc4c3)CC2c2ccccc2O)SC(=S)N1c1cccnc1 (centres undefined) = Yes

Then this compound:
Hello, I need to know if "O=C1c2cccc3cccc(c23)C(=O)N1CCCCN1CCN(CCCCOc2ccc(-c3nc4ccc(N5CCOCC5)cc4[nH]3)cc2)CC1" has measured growth not below 60%. Thanks!
Yes
